# measured.target: H1047R PIK3CA enzyme (Homo sapiens, UniProt P42336, H1047R)
# Sequence (P42336 whole entry H1047R): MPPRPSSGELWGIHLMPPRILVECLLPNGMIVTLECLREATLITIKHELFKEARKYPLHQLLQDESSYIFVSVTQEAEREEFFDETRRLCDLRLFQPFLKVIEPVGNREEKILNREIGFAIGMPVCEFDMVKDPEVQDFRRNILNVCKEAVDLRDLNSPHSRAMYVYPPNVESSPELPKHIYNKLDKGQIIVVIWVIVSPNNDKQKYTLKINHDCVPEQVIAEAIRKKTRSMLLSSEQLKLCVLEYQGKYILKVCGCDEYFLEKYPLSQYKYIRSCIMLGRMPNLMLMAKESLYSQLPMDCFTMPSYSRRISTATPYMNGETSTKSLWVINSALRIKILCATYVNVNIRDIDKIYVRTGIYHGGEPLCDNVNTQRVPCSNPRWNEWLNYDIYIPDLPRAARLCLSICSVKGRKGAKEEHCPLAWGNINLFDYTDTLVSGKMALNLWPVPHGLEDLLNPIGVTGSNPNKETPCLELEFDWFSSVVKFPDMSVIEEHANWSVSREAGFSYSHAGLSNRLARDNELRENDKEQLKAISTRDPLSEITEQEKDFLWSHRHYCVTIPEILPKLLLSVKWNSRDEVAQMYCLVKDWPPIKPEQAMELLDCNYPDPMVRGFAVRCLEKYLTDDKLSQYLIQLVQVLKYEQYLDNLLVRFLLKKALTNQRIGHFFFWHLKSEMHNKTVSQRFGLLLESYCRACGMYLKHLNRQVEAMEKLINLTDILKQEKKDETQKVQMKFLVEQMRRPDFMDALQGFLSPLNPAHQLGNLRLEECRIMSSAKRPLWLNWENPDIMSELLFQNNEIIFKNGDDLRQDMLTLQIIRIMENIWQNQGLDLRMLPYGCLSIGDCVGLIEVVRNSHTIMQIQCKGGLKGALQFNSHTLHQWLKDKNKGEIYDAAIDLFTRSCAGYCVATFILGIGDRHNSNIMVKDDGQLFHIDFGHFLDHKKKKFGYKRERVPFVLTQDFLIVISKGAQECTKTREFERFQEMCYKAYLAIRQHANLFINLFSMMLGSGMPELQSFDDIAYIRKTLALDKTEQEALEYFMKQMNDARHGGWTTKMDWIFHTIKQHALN
# Sequence (P27986 whole entry partner): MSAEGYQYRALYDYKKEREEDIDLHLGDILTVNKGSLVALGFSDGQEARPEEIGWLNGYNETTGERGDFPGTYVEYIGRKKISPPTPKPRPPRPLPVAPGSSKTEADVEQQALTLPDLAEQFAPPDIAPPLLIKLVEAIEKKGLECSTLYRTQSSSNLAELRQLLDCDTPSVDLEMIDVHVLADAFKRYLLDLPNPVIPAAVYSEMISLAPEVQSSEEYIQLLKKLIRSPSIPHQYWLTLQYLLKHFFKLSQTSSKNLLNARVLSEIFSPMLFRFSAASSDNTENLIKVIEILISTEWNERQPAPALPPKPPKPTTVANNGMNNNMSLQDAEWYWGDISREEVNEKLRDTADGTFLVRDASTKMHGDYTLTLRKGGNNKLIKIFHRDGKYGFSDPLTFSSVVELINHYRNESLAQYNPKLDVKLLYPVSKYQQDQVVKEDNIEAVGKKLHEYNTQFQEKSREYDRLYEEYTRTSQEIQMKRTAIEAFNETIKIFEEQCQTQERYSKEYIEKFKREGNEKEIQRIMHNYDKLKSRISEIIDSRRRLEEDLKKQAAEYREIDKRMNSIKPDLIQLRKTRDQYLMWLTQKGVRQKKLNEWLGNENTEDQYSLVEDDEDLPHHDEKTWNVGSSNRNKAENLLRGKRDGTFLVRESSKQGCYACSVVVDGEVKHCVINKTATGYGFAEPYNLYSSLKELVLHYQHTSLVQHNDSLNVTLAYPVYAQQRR
# assay: ADP-Glo Biochemical PIK3CA Kinase Assay
property: IC50

| molecule | IC50 |
| --- | --- |
| CNC(=O)c1ccc(Nc2cc(F)ccc2Cl)c(NC(=O)c2cc(F)cc(C(F)(F)F)c2)n1 [I-802] | 0.1 to 0.5 µM |

What does the record list as IC50 for CNC(=O)c1cnc(Nc2ccccc2C)c(NC(=O)c2cc3ccccc3cn2)c1 [I-184] ?
10 to 100 µM

What does the record list as IC50 for Cc1ccccc1Nc1ncc(-c2cnn(C)c2)cc1NC(=O)c1cc2ccccc2n1C [I-132] ?
1 to 10 µM

What does the record list as IC50 for CNC(=O)c1cnc(Nc2nc(C)c(C)s2)c(NC(=O)c2cc(F)cc(C(F)(F)F)c2)c1 [I-301] ?
0.5 to 1 µM

What does the record list as IC50 for Cc1ccccc1Nc1ncc(-c2cnn(C)c2)cc1NC(=O)c1ccccc1O [I-130] ?
10 to 100 µM

What does the record list as IC50 for Cc1ccccc1N[C@H]1CCN(C(=O)OC(C)(C)C)C[C@H]1C(=O)Nc1cc(F)cc(C(F)(F)F)c1 (racemic) [I-68] ?
10 to 100 µM

---

IC50: recorded values
# measured.target: H1047R PIK3CA enzyme (Homo sapiens, UniProt P42336, H1047R)
# assay: ADP-Glo Biochemical PIK3CA Kinase Assay
# test.conditions: ADP-Glo biochemical PIK3CA kinase assay

What does the record list as IC50 for Cc1ccccc1Nc1ncc(C(=O)N2CC(CF)C2)cc1NC(=O)c1csc2ccccc12 [I-628] ?
1 to 10 µM

What does the record list as IC50 for Cc1ccccc1Nc1ncc(C(=O)N[C@@H]2CCO[C@@H]2C)cc1NC(=O)c1csc2ccccc12 [I-594] ?
0.1 to 0.5 µM

What does the record list as IC50 for Cc1ccccc1Nc1ncc(C(=O)Nc2ccc3cn(C)nc3c2)cc1NC(=O)c1csc2ccccc12 [I-609] ?
≤ 0.1 µM

What does the record list as IC50 for CNC(=O)c1cnc(Nc2ccccc2C)c(NC(=O)c2ccc(F)c(F)c2)c1 [I-722] ?
1 to 10 µM

What does the record list as IC50 for Cc1ccccc1Nc1ncc(C(=O)N2CCC(F)C2)cc1NC(=O)c1csc2ccccc12 (stereo not drawn) [I-623] ?
0.5 to 1 µM

---

# measured.target: H1047R PIK3CA enzyme (Homo sapiens, UniProt P42336, H1047R)
# assay: ADP-Glo Biochemical PIK3CA Kinase Assay
pIC50: −log10 of the molar value.
property: pIC50

The examples below pair each entry with its known result.
| compound | property | endpoint.value |
| --- | --- | --- |
| CNC(=O)c1cnc(Nc2ccccc2C)c(NC(=O)Cc2c(F)ccc(F)c2F)c1 [I-164] | pIC50 | 4.00 to 5.00 |
| COc1ccc(C(=O)Nc2cc(-c3cnn(C)c3)cnc2Nc2ccccc2C)cc1 [I-126] | pIC50 | 4.00 to 5.00 |
| Cc1ccccc1N[C@H]1CCN(C2CCC2)C[C@H]1C(=O)Nc1cc(F)cc(C(F)(F)F)c1 (racemic) [I-252] | pIC50 | 4.00 to 5.00 |
| CNc1ncc(Br)cc1NC(=O)c1cc(F)cc(C(F)(F)F)c1 [I-58] | pIC50 | 4.00 to 5.00 |
| Cc1ccccc1Nc1ncc(-c2cnn(C)c2)cc1NC(=O)c1csc2ccc(Cl)cc12 [I-145] | pIC50 | 5.00 to 6.00 |
| Cc1ccccc1Nc1ncc(C(=O)Nc2cccnc2)cc1NC(=O)c1cc(F)cc(C(F)(F)F)c1 [I-239] | pIC50 | 6.30 to 7.00 |
| COC(=O)c1cnc(Nc2ccccc2C)c(NC(=O)c2cc(F)cc(C(F)(F)F)c2)c1 [I-3] | pIC50 | 5.00 to 6.00 |
| CNC(=O)c1cnc(N[C@@H]2CCCC[C@@H]2CO)c(NC(=O)c2cc(F)cc(C(F)(F)F)c2)c1 (racemic) [I-812] | pIC50 | 4.00 to 5.00 |
| Cc1ccc(NC(=O)c2cnc(Nc3ccccc3C)c(NC(=O)c3cc(F)cc(C(F)(F)F)c3)c2)nc1 [I-263] | pIC50 | 5.00 to 6.00 |
| Cc1ccccc1Nc1ncc(C(=O)Nc2cc[nH]c(=O)n2)cc1NC(=O)c1csc2ccccc12 [I-194] | pIC50 | 6.00 to 6.30 |

What does the record list as pIC50 for Cc1ccccc1Nc1ncc(-c2cnn(C)c2)cc1NC(=O)c1ccc(S(N)(=O)=O)cc1 [I-129] ?
4.00 to 5.00

What does the record list as pIC50 for Cc1ccccc1Nc1ncc(-c2cnn(C)c2)cc1NC(=O)c1cc(F)cc(C(F)(F)F)c1 [I-9] ?
4.00 to 5.00

What does the record list as pIC50 for CC1CCc2ccccc2N1c1ncc(C(=O)NCc2nccs2)cc1NC(=O)c1csc2ccccc12 (centres unmarked) [I-217] ?
5.00 to 6.00

What does the record list as pIC50 for O=C(Nc1cc(-c2cnn(C(F)F)c2)cnc1Nc1cc(F)ccc1Cl)c1cc(F)cc(C(F)(F)F)c1 [I-803] ?
5.00 to 6.00

What does the record list as pIC50 for CC1CCc2ccccc2N1c1ncc(C(=O)NC2CS(=O)(=O)C2)cc1NC(=O)c1csc2ccccc12 (centres unmarked) [I-216] ?
5.00 to 6.00

What does the record list as pIC50 for Cc1ccccc1Nc1ncc(C(=O)NCC2(O)CCCCC2)cc1NC(=O)c1csc2ccccc12 [I-189] ?
6.00 to 6.30

What does the record list as pIC50 for CNC(=O)c1cnc(Nc2cccc(N)c2)c(NC(=O)c2cc(F)cc(C(F)(F)F)c2)c1 [I-286] ?
5.00 to 6.00

---

# measured.target: H1047R PIK3CA enzyme (Homo sapiens, UniProt P42336, H1047R)
# assay: ADP-Glo Biochemical PIK3CA Kinase Assay
property: IC50

The examples below pair each entry with its known result.
| compound | IC50 |
| --- | --- |
| Cc1ccccc1Nc1ncc(-c2cnn(C)c2)cc1NC(=O)c1cc(F)cc(F)c1 [I-101] | 1 to 10 µM |
| CNC(=O)c1cnc(Nc2cccc(OC)n2)c(NC(=O)c2csc3ccccc23)c1 [I-346] | 1 to 10 µM |
| Cc1ccccc1Nc1ncc(NCC#N)cc1NC(=O)c1cc(F)cc(C(F)(F)F)c1 [I-155] | 0.5 to 1 µM |
| Cc1ccccc1Nc1ncc(C(=O)NCC2CCOCC2)cc1NC(=O)c1csc2ccccc12 [I-198] | 0.1 to 0.5 µM |
| CNC(=O)c1cnc(Nc2ccccc2C)c(NC(=O)C2CCOc3ccccc32)c1 (centres unmarked) [I-259] | 10 to 100 µM |

What does the record list as IC50 for Cc1ccccc1N[C@H]1CCN(C(=O)CC2CCOCC2)C[C@H]1C(=O)Nc1cc(F)cc(C(F)(F)F)c1 (racemic) [I-251] ?
10 to 100 µM

---

# measured.target: H1047R PIK3CA enzyme (Homo sapiens, UniProt P42336, H1047R)
# assay: ADP-Glo Biochemical PIK3CA Kinase Assay
# test.conditions: ADP-Glo biochemical PIK3CA kinase assay
property: IC50

What does the record list as IC50 for `CNC(=O)c1cnc(Nc2ccccc2C)c(N(CC(N)=O)C(=O)c2csc3ccccc23)c1` ?
1 to 10 µM

What does the record list as IC50 for `Cc1ccccc1Nc1ncc(C(=O)NCc2nccc3ccccc23)cc1NC(=O)c1csc2ccccc12` ?
0.1 to 0.5 µM

What does the record list as IC50 for `CNC(=O)c1cnc(Nc2ccccc2C)c(NC(=O)c2cnn3cc(F)ccc23)c1` ?
10 to 100 µM

What does the record list as IC50 for `Cc1ccccc1Nc1ncc(C(=O)N2CC(C#N)C2)cc1NC(=O)c1csc2ccccc12` ?
1 to 10 µM

---

# measured.target: H1047R PIK3CA enzyme (Homo sapiens, UniProt P42336, H1047R)
# assay: ADP-Glo Biochemical PIK3CA Kinase Assay
property: IC50

| compound | IC50 |
| --- | --- |
| Cc1ccccc1Nc1ncc(-c2cncc(C#N)c2)cc1NC(=O)c1cc(F)cc(C(F)(F)F)c1 [I-75] | 0.1 to 0.5 µM |
| Cc1ccccc1Nc1ncc(C(=O)NCC2CCCO2)cc1NC(=O)c1csc2ccccc12 (stereo not drawn) [I-195] | 0.1 to 0.5 µM |
| CNC(=O)c1cnc(Nc2ccccc2C)c(NC(=O)[C@@H]2C[C@H]2c2ccccc2)c1 [I-165] | 10 to 100 µM |
| CNC(=O)c1cnc(Nc2ncccc2C)c(NC(=O)c2cc(F)cc(C(F)(F)F)c2)c1 [I-269] | 1 to 10 µM |
| Cc1ccccc1Nc1ncc(NC(=O)OC(C)(C)C)cc1NC(=O)c1cc(F)cc(C(F)(F)F)c1 [I-54] | 1 to 10 µM |

Proceed to the following item.
What does the record list as IC50 for CNC(=O)N1CC[C@H](Nc2ccccc2C)[C@H](C(=O)Nc2cc(F)cc(C(F)(F)F)c2)C1 (racemic) [I-203] ?
10 to 100 µM

These entries and their values trace back to patent US20250090540A1.
